# TARGET_OR_TEST_SYSTEM: T1, cynomolgus monkey C-MET His tag, monomeric (cynomolgus monkey, UniProt A0M8R7 25-932 (Papio anubis entry))
# T1 construct: also called monomeric cyno C-MET; cyCMET
# T1 sequence (A0M8R7 25-932 S170N/I621T): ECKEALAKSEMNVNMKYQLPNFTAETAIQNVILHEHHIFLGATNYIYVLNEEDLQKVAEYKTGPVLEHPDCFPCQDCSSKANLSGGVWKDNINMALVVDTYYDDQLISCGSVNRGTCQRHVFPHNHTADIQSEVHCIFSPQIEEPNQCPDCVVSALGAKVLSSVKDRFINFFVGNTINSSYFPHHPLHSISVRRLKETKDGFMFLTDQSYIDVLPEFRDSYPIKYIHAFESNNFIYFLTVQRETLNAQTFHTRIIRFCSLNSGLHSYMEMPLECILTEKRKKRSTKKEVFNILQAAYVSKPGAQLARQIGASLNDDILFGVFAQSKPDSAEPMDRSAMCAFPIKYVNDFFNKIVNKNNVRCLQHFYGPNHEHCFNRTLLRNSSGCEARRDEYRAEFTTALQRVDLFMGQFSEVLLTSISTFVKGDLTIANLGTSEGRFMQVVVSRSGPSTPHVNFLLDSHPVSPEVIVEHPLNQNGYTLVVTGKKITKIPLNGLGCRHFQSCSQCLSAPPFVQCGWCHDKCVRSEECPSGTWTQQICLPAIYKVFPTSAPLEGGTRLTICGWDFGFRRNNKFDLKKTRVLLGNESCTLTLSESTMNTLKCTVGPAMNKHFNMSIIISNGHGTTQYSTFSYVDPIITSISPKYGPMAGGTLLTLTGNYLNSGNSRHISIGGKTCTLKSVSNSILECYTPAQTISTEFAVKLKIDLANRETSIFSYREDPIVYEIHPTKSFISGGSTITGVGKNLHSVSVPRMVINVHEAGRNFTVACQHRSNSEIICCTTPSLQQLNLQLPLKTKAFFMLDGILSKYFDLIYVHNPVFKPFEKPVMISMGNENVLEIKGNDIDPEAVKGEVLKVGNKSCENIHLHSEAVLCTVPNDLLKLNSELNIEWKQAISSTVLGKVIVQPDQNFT
# TEST: SPR Biacore, IgG captured, monomeric C-MET-His analyte
Note to self: Kd under 1 nM means Yes, ties and anything higher get No.

Look over these answered cases.
INSERT INTO assay_data (binder, category) VALUES
  ('07C10 (antibody, IgG4, V domains shown) VH: QVQLVQSGAEVKKPGASVKVSCKASGYIFTAYSMHWVRQAPGQGLEWMGIIKPSNGSTNYAQKFQGRVTMTRDTSTSTVYMELSSLRSEDTAVYYCARAEITTEFDYWGQGTLVTVSS VL: EIVLTQSPGTLSLSPGERATLSCRASQSVESYAQSYLHWYQQKPGQAPRLLIYRGSTRESGIPDRFSGSGSGTDFTLTISRLEPEDFAVYYCQQSKEEPLTFGGGTKVEIK', 'No'),
  ('MH7 (antibody, human IgG4, V domains shown) VH: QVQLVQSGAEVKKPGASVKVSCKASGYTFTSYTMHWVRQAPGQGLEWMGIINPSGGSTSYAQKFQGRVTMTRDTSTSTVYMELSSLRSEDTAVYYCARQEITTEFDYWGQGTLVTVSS VL: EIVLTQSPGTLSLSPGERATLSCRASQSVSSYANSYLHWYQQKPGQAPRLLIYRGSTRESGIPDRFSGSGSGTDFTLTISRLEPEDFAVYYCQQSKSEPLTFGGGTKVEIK', 'Yes'),
  ('04E10 (antibody, IgG4, V domains shown) VH: QVQLVQSGAEVKKPGASVKVSCKASGYIFTSYTMHWVRQAPGQGLEWMGWIKPNNGSASYAQKFQGRVTMTRDTSTSTVYMELSSLRSEDTAVYYCARSEITTEEDYWGQGTLVTVSS VL: EIVLTQSPGTLSLSPGERATLSCRASQSVDSYANSYLHWYQQKPGQAPRLLIYRGSTRESGIPDRFSGSGSGTDFTLTISRLEPEDFAVYYCQQSKSEPLTFGGGTKVEIK', 'No');

Inquiry: Please check: Kd for Grafted clone (Graft), IGHV1-46/IGKV3-20 CDR graft of 224G11 (antibody, human IgG4, V domains shown, also called VH graft/VL graft) VH: QVQLVQSGAEVKKPGASVKVSCKASGYIFTAYTMHWVRQAPGQGLEWMGWIKPNNGLANYAQKFQGRVTMTRDTSTSTVYMELSSLRSEDTAVYYCARSEITTEFDYWGQGTLVTVSS VL: EIVLTQSPGTLSLSPGERATLSCRASQSVDSYANSFLHWYQQKPGQAPRLLIYRASTRESGIPDRFSGSGSGTDFTLTISRLEPEDFAVYYCQQSKEDPLTFGGGTKVEIK , strictly under 1 nM or not?
Reply text: Yes

Inquiry: Further, for MH5 (antibody, IgG4, V domains shown) VH: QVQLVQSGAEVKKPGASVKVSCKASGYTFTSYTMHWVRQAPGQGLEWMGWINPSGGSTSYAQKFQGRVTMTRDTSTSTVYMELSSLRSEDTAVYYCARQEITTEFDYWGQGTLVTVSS VL: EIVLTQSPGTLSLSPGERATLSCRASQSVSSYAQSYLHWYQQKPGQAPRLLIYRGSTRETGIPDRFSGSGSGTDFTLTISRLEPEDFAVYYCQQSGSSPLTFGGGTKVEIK ?
Reply text: No

Inquiry: Further, for MH7-2 (antibody, human IgG4, V domains shown) VH: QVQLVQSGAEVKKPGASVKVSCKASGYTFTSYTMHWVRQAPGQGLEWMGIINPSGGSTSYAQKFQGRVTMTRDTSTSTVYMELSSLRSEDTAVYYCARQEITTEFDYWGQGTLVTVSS VL: EIVLTQSPGTLSLSPGERATLSCRASQSVSSYANSYLHWYQQKPGQAPRLLIYRGSTRETGIPDRFSGSGSGTDFTLTISRLEPEDFAVYYCQQSKESPLTFGGGTKVEIK ?
Reply text: Yes
